Each recorded value in this set is attributed to patent US20100292246A1.

- protocol.summary: aqueous solubility of crystalline Compound (I)
- Assay type: physicochemical
- applied.conditions: water (aqueous); crystalline material P-1
readout.name: solubility (µg/mL)
All answers are understood in µg/mL, so give the number only.

// query Requested field: solubility. Item: COc1cnc(-n2cnc(C)n2)c2[nH]cc(C(=O)C(=O)N3CCN(C(=O)c4ccccc4)CC3)c12 [Sample P-1]
// result 2.7
